# TARGET_DESC: T1, TNFR1 (Homo sapiens, UniProt P19438)
# T1 chain: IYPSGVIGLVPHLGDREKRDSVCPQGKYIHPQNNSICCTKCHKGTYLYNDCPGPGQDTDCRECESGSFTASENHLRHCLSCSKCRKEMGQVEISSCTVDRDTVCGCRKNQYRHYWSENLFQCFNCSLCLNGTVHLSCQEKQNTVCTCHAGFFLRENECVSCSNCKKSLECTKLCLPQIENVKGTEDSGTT
# EXPERIMENTAL_DETAILS: yeast display SC50
MEASURED_PARAMETER: apparent Kd (screen) (nM)
Give a bare numeral; the unit nM is implied.

K93H (designed binder) SMEEEVEKAAKEYEKKKKEAIEKHLEKLKAKDKEAAERFLKELEEAAKEYAKDEAKTMSEEEAKRRAKKYKEKVLLSELSEEEQKEIKEAEEHLVRTILKYVEEAAK ... 0.869
E4P (designed binder) SMEPEVEKAAKEYEKKKKEAIEKHLEKLKAKDKEAAERFLKELEEAAKEYAKDEAKTMSEEEAKRRAKKYKEKVLLSELSEEEQKEIKEAEEKLVRTILKYVEEAAK ... 3.3
H24V (designed binder) SMEEEVEKAAKEYEKKKKEAIEKVLEKLKAKDKEAAERFLKELEEAAKEYAKDEAKTMSEEEAKRRAKKYKEKVLLSELSEEEQKEIKEAEEKLVRTILKYVEEAAK ... 1.05

In the following, a different binder is considered.
Looking up E34I (designed binder) SMEEEVEKAAKEYEKKKKEAIEKHLEKLKAKDKIAAERFLKELEEAAKEYAKDEAKTMSEEEAKRRAKKYKEKVLLSELSEEEQKEIKEAEEKLVRTILKYVEEAAK , I see its apparent Kd (screen) listed as 0.446
